Entries and their measured EC50 follow.
- Test system: A. pacificum
- TEST_SUMMARY: Algicidal activity assay, EC50
- Type: cell-based, Alexandrium pacificum
- CONDITION_SUMMARY: Alexandrium pacificum; Mean ± SD, n = 3
PARAMETER_MEASURED: EC50 (mg/L)

COMPOUND: COc1ccc2[nH]cc(CCNC(=O)c3csc(-c4ccccc4)n3)c2c1
ASSAYED_SYSTEM: A. pacificum
MEAS_VALUE: 0.72
//
COMPOUND: CN(C)C(=O)Nc1ccc(Cl)c(Cl)c1 [Diuron, reference compound]
ASSAYED_SYSTEM: A. pacificum
MEAS_VALUE: 5.69
//
COMPOUND: NCCNC(=O)c1csc(-c2ccccc2)n1
ASSAYED_SYSTEM: A. pacificum
MEAS_VALUE: 3.42
//
COMPOUND: O=C(NCCc1ccccc1)c1csc(-c2ccccc2)n1
ASSAYED_SYSTEM: A. pacificum
MEAS_VALUE: 0.53
//
COMPOUND: CN(C)CCNC(=O)c1csc(-c2ccccc2)n1
ASSAYED_SYSTEM: A. pacificum
MEAS_VALUE: 2.02
//
COMPOUND: CC(=O)c1nc(C(=O)NCCc2c[nH]c3ccccc23)cs1 [bacillamide A]
ASSAYED_SYSTEM: A. pacificum
MEAS_VALUE: 2.17
//
COMPOUND: CCOc1ccc(-c2nc(C(=O)NCCc3c[nH]c4ccccc34)cs2)cc1
ASSAYED_SYSTEM: A. pacificum
MEAS_VALUE: 2.43
//
COMPOUND: O=C(Nc1ccccc1)c1csc(-c2ccccc2)n1
ASSAYED_SYSTEM: A. pacificum
MEAS_VALUE: 0.69
//
COMPOUND: O=C(NCCc1c[nH]c2ccccc12)c1csc(-c2ccccc2)n1
ASSAYED_SYSTEM: A. pacificum
MEAS_VALUE: 3.32
//
COMPOUND: CCCCc1nc(C(=O)NCCc2c[nH]c3ccccc23)cs1
ASSAYED_SYSTEM: A. pacificum
MEAS_VALUE: 0.47

* * *

- Tested on: S. costatum
- TEST_SUMMARY: Algicidal activity assay, EC50
- Type: cell-based, Skeletonema costatum
- CONDITION_SUMMARY: Skeletonema costatum; Mean ± SD, n = 3; read-out: EC50 S. costatum

COMPOUND: NCCNC(=O)c1csc(-c2ccccc2)n1
MEASURE_UNIT: µg/mL
EC50: 2.28

COMPOUND: CC(=O)c1nc(C(=O)NCCc2c[nH]c3ccccc23)cs1 [bacillamide A]
MEASURE_UNIT: µg/mL
EC50: 2.51

COMPOUND: COc1ccc2[nH]cc(CCNC(=O)c3csc(-c4ccccc4)n3)c2c1
MEASURE_UNIT: µg/mL
EC50: 0.37

COMPOUND: O=C(NCCc1c[nH]c2ccccc12)c1csc(-c2ccccc2)n1
MEASURE_UNIT: µg/mL
EC50: 0.11

COMPOUND: CCCCc1nc(C(=O)NCCc2c[nH]c3ccccc23)cs1
MEASURE_UNIT: µg/mL
EC50: 0.3

COMPOUND: O=C(Nc1ccccc1)c1csc(-c2ccccc2)n1
MEASURE_UNIT: µg/mL
EC50: 1.1

COMPOUND: CCOc1ccc(-c2nc(C(=O)NCCc3c[nH]c4ccccc34)cs2)cc1
MEASURE_UNIT: µg/mL
EC50: 0.51

COMPOUND: CN(C)CCNC(=O)c1csc(-c2ccccc2)n1
MEASURE_UNIT: µg/mL
EC50: 0.77

COMPOUND: O=C(NCCc1ccccc1)c1csc(-c2ccccc2)n1
MEASURE_UNIT: µg/mL
EC50: 0.24
